// provenance: patent US4496551A

test system: Venturia inaequalis; experiment: apple scab control on apple seedlings; assay type: in vivo; settings: Venturia inaequalis; 100 ppm
What pest or weed control at 100 ppm was measured for each of the following?
State just the number; it will be interpreted in %.

Returns the measured pest or weed control at 100 ppm for the input molecule. Input: CC(n1ccnc1)[Si](C)(c1ccc(F)cc1)c1ccc(F)cc1 (stereo not shown) 100

Can you look up the measured pest or weed control at 100 ppm of C[Si](Cn1ccnc1)(c1ccccc1)c1ccc(-c2ccccc2)cc1 (stereo not shown) for me? 0

Need pest or weed control at 100 ppm of CSc1ccc([Si](C)(C)Cn2ccnc2)cc1 , thanks. 0

Requested read-out: pest or weed control at 100 ppm. Entry: CC(C)(C)O[Si](C)(Cn1ccnc1)c1ccccc1 (stereo not shown) 0

Entry CC(C)(C)c1ccc([Si](C)(C)Cn2ccnc2)cc1 : reported pest or weed control at 100 ppm = ? 50

Would you mind telling me what pest or weed control at 100 ppm value was observed for C[Si](C)(Cn1ccnc1)c1ccc(Oc2ccccc2)cc1 ? 100

# lookup: pest or weed control at 100 ppm of C[Si](Cn1ccnc1)(c1ccc(-c2ccccc2)cc1)c1ccc(-c2ccccc2)cc1 50

May I ask what pest or weed control at 100 ppm has been recorded for C[Si](Cn1ccnc1)(c1ccc(Cl)cc1Cl)c1ccc(Cl)cc1Cl ? 40

Quick one: pest or weed control at 100 ppm of Cc1ccc([Si](C)(C)Cn2ccnc2)cc1 ? 0

I am curious: what pest or weed control at 100 ppm value has been reported for CCCC[Si](C)(Cn1ccnc1)c1ccc(Cl)cc1 (stereo not shown) ? 90

Suppose we examine the molecule C[Si](C)(Cn1ccnc1)c1ccc(Oc2ccc(Cl)cc2)cc1 ; what pest or weed control at 100 ppm value has been reported? 0

What measured pest or weed control at 100 ppm goes with CCCC[Si](C)(Cn1ccnc1)c1ccc(Cl)cc1Cl (stereo not shown) ? 100

Please report the recorded pest or weed control at 100 ppm for O[Si](Cn1ccnc1)(c1ccc(F)cc1)c1ccc(F)cc1 . 0

Item under review: C[Si](C)(Cn1ccnc1)c1cccc(C(F)(F)F)c1 . Reported pest or weed control at 100 ppm? 0

What measured pest or weed control at 100 ppm goes with C[Si](C)(Cn1ccnc1)C1CCCCC1 ? 100

Recorded pest or weed control at 100 ppm of C[Si](C)(Cn1ccnc1)c1cccc(-c2ccccc2)c1 , please. 90

Tell me the measured pest or weed control at 100 ppm of C[Si](Cn1ccnc1)(c1ccc(Br)cc1)c1ccc(Br)cc1 , please. 50

Sample O[Si](Cn1ccnc1)(c1ccc(Cl)cc1)c1ccc(Cl)cc1 — what was its pest or weed control at 100 ppm? 0

Query: pest or weed control at 100 ppm; subject: Clc1ccc([Si](Cn2ccnc2)(c2ccc(Cl)cc2)c2ccc(Cl)cc2)cc1 0

pest or weed control at 100 ppm lookup needed for C[Si](C)(Cn1ccnc1)c1ccc(Cl)cc1Cl , thanks. 100

Given C[Si](C)(Cn1ccnc1)c1ccc(F)cc1 , state its recorded pest or weed control at 100 ppm. 0

Requested field: pest or weed control at 100 ppm. Item: C[Si](C)(Cn1ccnc1)c1ccc(Cl)cc1 0

Could you tell me which pest or weed control at 100 ppm is on file for C[Si](Cn1ccnc1)(c1ccccc1)c1ccc(Br)cc1 (stereo not shown) ? 30

I'd like to know its pest or weed control at 100 ppm. The molecule in question is COc1cccc(OC)c1[Si](C)(C)Cn1ccnc1 0

Entry C[Si](C)(Cn1ccnc1)c1ccccc1Cl : reported pest or weed control at 100 ppm = ? 90

What value of measured pest or weed control at 100 ppm is listed for C[Si](C)(Cn1ccnc1)c1ccc(-c2ccc(Br)cc2)cc1 ? 50

Could you tell me which pest or weed control at 100 ppm is on file for C[Si](Cn1ccnc1)(c1ccccc1)c1ccc(Cl)cc1Cl (stereo not shown) ? 80

Given the entry C[Si](C)(Cn1ccnc1)c1cccc2ccccc12 , report its measured pest or weed control at 100 ppm. 40

Query: pest or weed control at 100 ppm; subject: COc1ccc([Si](C)(Cn2ccnc2)c2ccc(OC)cc2)cc1 50

# input molecule: C[Si](Cn1ccnc1)(c1ccccc1)c1ccc(F)cc1 (stereo not shown) ; wanted: its pest or weed control at 100 ppm 100

Give the measured pest or weed control at 100 ppm of CCCC[Si](C)(Cn1ccnc1)c1ccc(-c2ccccc2)cc1 (stereo not shown) . 100

Item under review: CCCC[Si](C)(Cn1ccnc1)c1ccc(F)cc1 (stereo not shown) . Reported pest or weed control at 100 ppm? 80

Consider the molecule shown here: C[Si](Cn1ccnc1)(c1ccc(F)cc1)c1ccc(-c2ccccc2)cc1 (stereo not shown) What is its recorded pest or weed control at 100 ppm? 50

Would you mind telling me what pest or weed control at 100 ppm value was observed for COc1ccc([Si](C)(C)Cn2ccnc2)cc1 ? 0

Look up pest or weed control at 100 ppm for this molecule: CCCCCCCCCCCC[Si](C)(C)Cn1ccnc1 0

Consider the molecule C[Si](C)(Cn1ccnc1)c1ccc(Cl)c(Cl)c1 and give its measured pest or weed control at 100 ppm. 80

Item C[Si](C)(Cn1ccnc1)c1cc(Cl)cc(Cl)c1 has what recorded pest or weed control at 100 ppm? 50

Need pest or weed control at 100 ppm of C[Si](C)(Cn1ccnc1)c1ccc(S(C)(=O)=O)cc1 , thanks. 80

Requested field: pest or weed control at 100 ppm. Item: COc1cccc([Si](C)(C)Cn2ccnc2)c1OC 0

Query: pest or weed control at 100 ppm; subject: C[Si](C)(Cn1ccnc1)c1cccc(Cl)c1 60

# query: pest or weed control at 100 ppm of entry C[Si](Cn1ccnc1)(c1ccccc1)c1ccc(Cl)cc1 (stereo not shown) 100

What measured pest or weed control at 100 ppm goes with COc1ccccc1[Si](C)(C)Cn1ccnc1 ? 60

Can you share its pest or weed control at 100 ppm? I mean this molecule: Fc1ccc([Si](Cn2ccnc2)(c2ccc(F)cc2)c2ccc(F)cc2)cc1 0

Entry C[Si](Cn1ccnc1)(c1ccccc1Cl)c1ccccc1Cl : reported pest or weed control at 100 ppm = ? 60

I am curious: what pest or weed control at 100 ppm value has been reported for C[Si](C)(Cn1ccnc1)c1ccc(Br)cc1 ? 0

// returns reported pest or weed control at 100 ppm for input C[Si](Cn1ccnc1)(c1ccc(Cl)cc1)c1ccc(Cl)cc1 0

For C[Si](C)(Cn1ccnc1)c1ccccc1C(F)(F)F , what is its reported pest or weed control at 100 ppm? 0

Recorded pest or weed control at 100 ppm for CC(C)O[Si](Cn1ccnc1)(OC(C)C)c1ccccc1 , please? 70

Given the entry C[Si](Cn1ccnc1)(c1ccc(F)cc1)c1ccc(F)cc1 , report its measured pest or weed control at 100 ppm. 100
